Let's look at some binders and their measured pKd.
system: T1, GFP-9S library array, motif 4 ND N98A;D124T (synthetic construct, N98A;D124T)
T1 chain: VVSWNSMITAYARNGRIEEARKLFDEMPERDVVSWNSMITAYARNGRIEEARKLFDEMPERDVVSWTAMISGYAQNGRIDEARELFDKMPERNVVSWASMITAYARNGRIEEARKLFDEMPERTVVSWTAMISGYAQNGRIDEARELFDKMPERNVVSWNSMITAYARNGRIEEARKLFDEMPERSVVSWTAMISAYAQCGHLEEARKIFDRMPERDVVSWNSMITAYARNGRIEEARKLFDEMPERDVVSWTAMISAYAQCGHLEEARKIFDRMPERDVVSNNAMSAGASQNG
assay.name: high-throughput RNA pulldown from lysate on Ni-NTA beads; HRP: 50 mM Tris pH 8, 150 mM NaCl, 1 mM beta-mercaptoethanol, 50 ug/ml BSA, 3 ug/ml yeast RNA, 0.5% heparin; ITC and FP: Tris pH 8, 200 mM KCl, 5% glycerol; MST: 50 mM Tris pH 8, 200 mM NaCl, 1 mM DTT, BSA, heparin, 0.05% Tween 20
condition.parameters: tags: N-terminal His-eGFP; label: 5' IRDye 800CW
pKd: −log10 of the molar value.
experimental.endpoint: pKd

- binder: "AUUAUACGUGA (ssRNA) [IR-rpoA-U]"
  numeric.value: 7.16
- binder: "AUUAAACGUGA (ssRNA) [IR-rpoA-A]"
  numeric.value: 7.04

The measured values listed here are drawn from paper PMC8809517.
